Target: Kallikrein-7 (Homo sapiens, UniProt P49862)
Sequence (P49862 whole entry): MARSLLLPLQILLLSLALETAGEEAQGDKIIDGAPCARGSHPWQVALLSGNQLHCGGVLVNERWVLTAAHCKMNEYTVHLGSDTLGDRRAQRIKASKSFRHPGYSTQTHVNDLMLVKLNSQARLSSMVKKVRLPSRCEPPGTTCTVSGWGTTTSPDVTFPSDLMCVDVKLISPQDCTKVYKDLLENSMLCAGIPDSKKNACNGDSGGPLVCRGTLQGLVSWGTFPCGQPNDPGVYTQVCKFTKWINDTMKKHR
Assay: Inhibition of recombinant human KLK7 using MOCAc-Arg-Pro-Lys-Pro-Val-Glu-Nva-Trp-Arg-Lys(Dnp)-NH2 as substrate preincubated for 10 mins followed by substrate addition measured after 30 mins by fluorescence assay
assay-endpoint: IC50 (µM)

Solved entries (count: 2):
- CCC[C@H](C(=O)Nc1cccc(-c2cnn(C)c2)c1)N1C/C(=N/N(C)C)NC[C@@H](Cc2cc(Cl)ccc2OC)C1=O: 7
- COc1ccc(Cl)cc1C[C@@H]1CN/C(=N\N(C)C)CN(CC(=O)Nc2cccc(-c3cnn(C)c3)c2)C1=O: 0.52

I = COc1ccc(Cl)cc1C[C@@H]1CN/C(=N\N(C)C)CN(CC(=O)Nc2cccc(-c3ccco3)c2)C1=O
II = CCCC[C@@H](C(=O)Nc1cccc(-c2cnn(C)c2)c1)N1C/C(=N/N(C)C)NC[C@@H](Cc2cc(Cl)ccc2OC)C1=O
*Q* I or II : whose IC50 is greater? Bench note: the answer is the label of the chosen record.
*A* I

====

Target: Kallikrein-5 (Homo sapiens)
Sequence (Q9Y337 whole entry): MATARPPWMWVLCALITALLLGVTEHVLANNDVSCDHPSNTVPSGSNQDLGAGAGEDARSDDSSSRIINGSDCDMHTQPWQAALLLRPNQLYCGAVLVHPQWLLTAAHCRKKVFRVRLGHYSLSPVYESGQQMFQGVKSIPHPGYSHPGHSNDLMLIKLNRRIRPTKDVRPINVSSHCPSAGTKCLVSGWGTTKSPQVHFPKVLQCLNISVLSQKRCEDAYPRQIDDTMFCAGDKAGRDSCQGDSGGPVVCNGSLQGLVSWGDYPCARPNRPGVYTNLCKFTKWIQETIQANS
Assay: Inhibition of recombinant human KLK5 using Boc-Val-Pro-Arg-MCA as substrate preincubated for 10 mins followed by substrate addition measured after 30 mins by fluorescence assay
pIC50: −log10 of the molar value.
assay-endpoint: pIC50

A selection of reference data follows.
* COc1ccc(Cl)cc1C[C@@H]1CN/C(=N\N(C)C)CN([C@@H](C)C(=O)Nc2cccc(-c3cnn(C)c3)c2)C1=O | < 4.52
* COc1ccc(Cl)cc1C[C@@H]1CN/C(=N\N(C)C)CN(CC(=O)Nc2cccc(-c3cnn(C)c3)c2)C1=O | < 4.52

Proceeding to the next compound to report its pIC50.
*Q* Give the reported pIC50 for this compound. "CCC[C@@H](C(=O)Nc1cccc(-c2cnn(C)c2)c1)N1C/C(=N/N(C)C)NC[C@@H](Cc2cc(Cl)ccc2OC)C1=O"
*A* < 4.52
